Catalogue of EC50 values
Biological target: human TGR5 (Homo sapiens)
Construct: expressed in transfected cells; host or cells: HEK293
Sequence (Q8TDU6 1-330): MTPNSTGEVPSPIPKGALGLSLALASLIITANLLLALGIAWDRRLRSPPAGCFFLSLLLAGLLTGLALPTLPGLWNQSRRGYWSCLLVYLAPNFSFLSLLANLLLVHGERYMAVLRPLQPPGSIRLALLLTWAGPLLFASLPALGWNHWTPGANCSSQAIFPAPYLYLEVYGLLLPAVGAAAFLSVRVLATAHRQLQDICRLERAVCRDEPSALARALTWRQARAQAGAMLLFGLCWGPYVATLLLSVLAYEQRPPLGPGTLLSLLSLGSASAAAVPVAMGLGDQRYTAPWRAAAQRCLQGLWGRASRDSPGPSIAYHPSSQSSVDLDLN
Test: Cell-based TGR5 assay (cAMP generation, HTRF)
Conditions: HEK293 cells stably transfected with human TGR5; cAMP by HTRF; 30 minutes at 37° C.; read-out: pEC50 Human TGR5 (converted)

# compound, result
measured = [
    ("Cc1ccc(SCCCCN(C(=O)[C@@H](O)[C@@H](O)[C@H](O)[C@@H](O)CO)C2CCOCC2)cc1CNC1(c2cnccc2-c2ccccc2OC2CC2)CC1", "126 to 1000 nM"),
    ("O=C(CO)N(CCCCc1cc(Cl)c(COC2(c3cnccc3-c3ccccc3OC3CC3)CC2)cc1Cl)C[C@H](O)[C@@H](O)[C@H](O)[C@H](O)CO", "< 100 nM"),
    ("CC(CCCC(=O)N(C)C[C@H](O)[C@@H](O)[C@H](O)[C@H](O)CO)c1ccc(Cl)c(CNC2(c3cnccc3-c3ccccc3OC3CC3)CC2)c1 (stereo partly drawn)", "< 100 nM"),
    ("Cc1ccc(SCCCCC(=O)NC[C@H](O)[C@@H](O)[C@H](O)[C@H](O)CO)nc1CNC1(c2cnccc2-c2ccccc2OC2CC2)CC1", "< 100 nM"),
    ("COc1ccccc1-c1ccncc1C1(NCc2cc(Cl)ccc2Cl)CC1", "126 to 1000 nM"),
    ("CC(CCCCN(C)C(=O)NC[C@H](O)[C@@H](O)[C@H](O)[C@H](O)CO)c1ccc(Cl)c(CNC2(c3cnccc3-c3ccccc3OC3CC3)CC2)c1 (stereo partly drawn)", "< 100 nM"),
]

Pending compound:
**Query** Field request: EC50 | item: COCCN(C[C@H](O)[C@@H](O)[C@H](O)[C@H](O)CO)C(=O)CCCC(C)c1ccc(C)c(CNC2(c3cnccc3-c3ccccc3OC3CC3)CC2)c1 (stereo partly drawn)
**Result** < 100 nM

* * *

Biological target: human TGR5 (Homo sapiens)
Construct: expressed in transfected cells; host or cells: HEK293
Experiment: Cell-based TGR5 assay (cAMP generation, HTRF)
Details: HEK293 cells stably transfected with human TGR5; cAMP by HTRF; 30 minutes at 37° C.; read-out: pEC50 Human TGR5 (converted)
endpoint.label: EC50

Consider the reported EC50 for these compounds:
# compound, assay.target, result
rows = [
    ("O=C(NCCCCC[S+]([O-])c1ccc(Cl)c(COC2(c3cnccc3-c3ccccc3OC3CC3)CC2)c1)NC[C@H](O)[C@@H](O)[C@H](O)[C@H](O)CO (some centres unmarked) [Compound I-639]", "human TGR5 (Homo sapiens)", "< 100 nM"),
    ("CC(CCCCN(CCOCCO)C(=O)[C@@H](O)[C@@H](O)[C@H](O)[C@@H](O)CO)c1ccc(Cl)c(CNC2(c3cnccc3-c3ccccc3OC3CC3)CC2)c1 (some centres unmarked) [Compound I-288]", "human TGR5 (Homo sapiens)", "< 100 nM"),
    ("CN1C[C@@H]2C[C@H]1CN2S(=O)(=O)c1ccc(Cl)c(COC2(c3cnccc3-c3ccccc3OC3CC3)CC2)c1 [Compound I-777]", "human TGR5 (Homo sapiens)", "126 to 1000 nM"),
    ("Clc1cccc(COC2(c3cnccc3-c3ccccc3OC3CC3)CC2)c1Cl [Compound I-47]", "human TGR5 (Homo sapiens)", "126 to 1000 nM"),
    ("CC(CCCC(=O)N(CCS(=O)(=O)N(C)C)C[C@H](O)[C@@H](O)[C@H](O)[C@H](O)CO)c1ccc(Cl)c(CNC2(c3cnccc3-c3ccccc3OC3CC3)CC2)c1 (some centres unmarked) [Compound I-348]", "human TGR5 (Homo sapiens)", "< 100 nM"),
]

**Query** Test system human TGR5 (Homo sapiens); read-out EC50; what value for CN(C[C@H](O)[C@@H](O)[C@H](O)[C@H](O)CO)C(=O)CC1(CSc2ccc(Cl)c(COC3(c4cnccc4-c4ccccc4OC4CC4)CC3)c2)CC1 [Compound I-679] ?
**Result** < 100 nM

**Query** Then what about the compound O=C([C@@H](O)[C@@H](O)[C@H](O)[C@@H](O)CO)N(CCCCSc1ccc(Cl)c(CNC2(c3cnccc3-c3ccccc3OC3CC3)CC2)c1)CCOCCO [Compound I-533] ?
**Result** < 100 nM

**Query** Then what about the compound CS(=O)(=O)NCCCN(CCCCSc1ccc(Cl)c(CNC2(c3cnccc3-c3ccccc3OC3CC3)CC2)c1)C(=O)[C@@H](O)[C@@H](O)[C@H](O)[C@@H](O)CO [Compound I-591] ?
**Result** 126 to 1000 nM

**Query** Then what about the compound CN(CCCCc1cc(Cl)c(COC2(c3cnccc3-c3ccccc3OC3CC3)CC2)cc1Cl)C(=O)NC[C@H](O)[C@@H](O)[C@H](O)[C@H](O)CO (stereo in doubt) [Compound I-204] ?
**Result** < 100 nM

**Query** Then what about the compound O=C(CCCCc1cc(Cl)c(COC2(c3cnccc3-c3ccccc3OC3CC3)CC2)cc1Cl)N1CCN(C[C@H](O)[C@@H](O)[C@H](O[C@@H]2O[C@H](CO)[C@H](O)[C@H](O)[C@H]2O)[C@H](O)CO)CC1 [Compound I-103] ?
**Result** < 100 nM

**Query** Then what about the compound O=C(NC[C@H](O)[C@@H](O)[C@H](O)[C@H](O)CO)C1CCC(NS(=O)(=O)c2ccc(Cl)c(COC3(c4cnccc4-c4ccccc4OC4CC4)CC3)c2)C1 (some centres unmarked) [Compound I-439] ?
**Result** < 100 nM

* * *

Catalogue of EC50 values
Target: human TGR5 (Homo sapiens)
Construct: expressed in transfected cells; host or cells: HEK293
Assay: Cell-based TGR5 assay (cAMP generation, HTRF)
Settings: HEK293 cells stably transfected with human TGR5; cAMP by HTRF; 30 minutes at 37° C.; read-out: pEC50 Human TGR5 (converted)

# compound, EC50
records = [
    ("O=C([C@H](O)[C@@H](O)[C@H](O)[C@H](O)CO)N(CCCCO)CCCCc1cc(Cl)c(COC2(c3cnccc3-c3ccccc3OC3CC3)CC2)cc1Cl [Compound I-81]", "< 100 nM"),
    ("C[C@H](O)CN(CCCCc1cc(Cl)c(COC2(c3cnccc3-c3ccccc3OC3CC3)CC2)cc1Cl)C(=O)[C@@H](O)[C@@H](O)[C@H](O)[C@@H](O)CO [Compound I-215]", "< 100 nM"),
    ("CS(=O)(=O)CCN(CCCCSc1ccc(Cl)c(COC2(c3cnccc3-c3ccccc3OC3CC3)CC2)c1)C(=O)[C@@H](O)[C@@H](O)[C@H](O)[C@@H](O)CO [Compound I-559]", "< 100 nM"),
    ("Cc1ccc(Cl)c(CNC2(c3cnccc3-c3ccccc3OC3CC3)CC2)n1 [Compound I-35]", "< 100 nM"),
    ("CC(OCc1cc(Cl)ccc1Cl)c1cnccc1-c1ccccc1OC1CC1 (stereo not drawn) [Compound I-745]", "126 to 1000 nM"),
]

Pending compound:
**Query** Field request: EC50 | item: Cc1ccc(C(C)CCCC(=O)N(CCO)C[C@H](O)[C@@H](O)[C@H](O)[C@H](O)CO)cc1COC1(c2cnccc2-c2ccccc2OC2CC2)CC1 (stereo partly drawn) [Compound I-376]
**Result** < 100 nM
